Assay: Equilibrium solubility of API and excipients in spray solvents (TGA of saturated supernatant)
Conditions: 80/20 ethanol/water by weight, organic solvent or mixture, thermodynamic from solid, Solubility, mg/mL in 80/20 Ethanol/Water, 80/20 ethanol/water by mass
Measured property: solubility

INPUT: Report solubility for C#Cc1cccc(Nc2ncnc3cc(OCCOC)c(OCCOC)cc23)c1 [ERL, erlotinib] please.
OUTPUT: < 1000 µg/mL
